kon for assorted binders
# test-system: T1, his-tagged hTfR1 (Acro Biosystems p/n CD1-H5243) (human, UniProt P02786 89-760)
# T1 construct: Bought reagent of the SPR assay
# T1 sequence (P02786 89-760 limits assumed): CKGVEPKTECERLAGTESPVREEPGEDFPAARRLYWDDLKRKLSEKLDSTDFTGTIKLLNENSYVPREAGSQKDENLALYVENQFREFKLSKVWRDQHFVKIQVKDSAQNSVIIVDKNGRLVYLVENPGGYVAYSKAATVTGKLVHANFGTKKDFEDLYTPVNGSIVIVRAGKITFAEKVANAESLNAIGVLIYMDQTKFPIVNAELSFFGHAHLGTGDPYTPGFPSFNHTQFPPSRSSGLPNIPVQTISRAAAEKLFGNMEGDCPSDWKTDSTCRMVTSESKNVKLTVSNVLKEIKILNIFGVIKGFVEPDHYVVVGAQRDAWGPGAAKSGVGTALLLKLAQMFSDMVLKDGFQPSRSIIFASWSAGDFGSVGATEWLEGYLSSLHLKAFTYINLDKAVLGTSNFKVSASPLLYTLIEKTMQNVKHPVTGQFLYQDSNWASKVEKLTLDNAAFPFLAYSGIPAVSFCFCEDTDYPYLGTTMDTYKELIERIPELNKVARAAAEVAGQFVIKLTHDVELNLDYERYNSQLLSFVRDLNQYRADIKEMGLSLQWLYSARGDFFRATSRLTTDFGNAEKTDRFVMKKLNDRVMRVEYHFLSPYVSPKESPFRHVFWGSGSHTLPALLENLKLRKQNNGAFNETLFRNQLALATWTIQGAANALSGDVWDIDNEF
# assay-name: SPR, Biacore X100, His-tagged TfR1 captured by anti-His
Numbers only here, please. The scale is M⁻¹ s⁻¹.

{"columns": ["binder", "units-of-measure", "kon"],
 "data": [
  ["Fab0065 (Fab, V domains shown) VH: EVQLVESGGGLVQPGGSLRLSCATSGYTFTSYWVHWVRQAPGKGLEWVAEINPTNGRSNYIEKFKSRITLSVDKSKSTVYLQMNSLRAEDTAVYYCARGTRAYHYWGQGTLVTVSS VL: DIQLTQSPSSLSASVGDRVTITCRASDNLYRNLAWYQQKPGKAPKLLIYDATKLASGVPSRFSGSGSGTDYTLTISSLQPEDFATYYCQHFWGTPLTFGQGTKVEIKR", "M⁻¹ s⁻¹", "1.72e+06"]
]}

Query block: Recall and state the measured kon for Fab0072 (Fab, V domains shown) VH: EVQLVESGGGLVQPGGSLRLSCATSGYTFNSYWMHWVRQAPGKGLEWVAEINPTNGRFNYIEKFKSRITLSVDKSKSTVYLQMNSLRAEDTAVYYCARGTRAYHYWGQGTLVTVSS VL: DIQLTQSPSSLSASVGDRVTITCRASDNLYRNLAWYQQKPGKAPKLLIYDARNLASGVPSRFSGSGSGTDYTLTISSLQPEDFATYYCQHFWGTPLTFGQGTKVEIKR .
Result block: 1.86e+06

Query block: Give the value of kon reported for the following: Fab0062 (Fab, V domains shown) VH: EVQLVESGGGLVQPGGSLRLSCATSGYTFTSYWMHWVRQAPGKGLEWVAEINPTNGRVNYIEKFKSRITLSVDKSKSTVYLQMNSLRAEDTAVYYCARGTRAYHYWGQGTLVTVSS VL: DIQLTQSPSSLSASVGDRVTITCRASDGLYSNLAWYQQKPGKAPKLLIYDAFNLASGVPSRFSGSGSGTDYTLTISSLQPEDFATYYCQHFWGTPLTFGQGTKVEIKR
Result block: 1.18e+06

Query block: Look up and report measured kon for this entry: Fab0068 (Fab, V domains shown) VH: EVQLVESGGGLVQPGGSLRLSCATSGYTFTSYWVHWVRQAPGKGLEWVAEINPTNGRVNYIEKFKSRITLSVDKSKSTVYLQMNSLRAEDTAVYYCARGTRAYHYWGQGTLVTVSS VL: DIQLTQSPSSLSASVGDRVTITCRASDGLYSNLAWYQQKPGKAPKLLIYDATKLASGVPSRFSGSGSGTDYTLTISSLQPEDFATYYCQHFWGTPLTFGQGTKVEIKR
Result block: 1.17e+06

Query block: # return recorded kon for entry Fab0066 (Fab, V domains shown) VH: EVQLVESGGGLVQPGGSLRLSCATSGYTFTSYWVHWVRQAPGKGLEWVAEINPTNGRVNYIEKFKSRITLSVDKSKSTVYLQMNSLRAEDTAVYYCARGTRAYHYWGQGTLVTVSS VL: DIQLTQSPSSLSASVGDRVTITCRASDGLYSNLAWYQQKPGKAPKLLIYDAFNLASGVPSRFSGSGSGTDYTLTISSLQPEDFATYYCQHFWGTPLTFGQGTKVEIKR
Result block: 985000
